system: LOX IMVI melanoma; test: NCI tumour cell line growth inhibition, 48 h; in the data active = GI50 below about 0.43 µM; inactive = the rest
The categories you may choose from are active, inactive

See these solved cases before continuing.
O=C1C2=C(C(=O)c3c(O)ccc(O)c31)N(c1cccnc1)Cc1ccccc1O2 | active
COc1ccccc1CN=C1NC(=O)/C(=C/c2ccc3ncccc3c2)S1 | inactive
CCN(CC)c1ccc(CNc2cc(C)nc3ccc(OC)cc23)cc1 | inactive

stdin: Just curious, what result did Oc1ccccc1/C=N/Nc1nc2ccccc2s1 get here?
stdout: inactive

stdin: Outcome logged for Nc1c(C(=O)c2cccc(C(O)(CO)CO)c2)cnn1-c1ccc(F)cc1 in this assay:
stdout: inactive

stdin: Entry C/C(=N\NC(=O)c1cccc(S(=O)(=O)N2CCN(C)CC2)c1)c1cc(Cl)ccc1O : call = ?
stdout: inactive

---

tested on: DMS 273 small cell lung; assay: NCI tumour cell line growth inhibition, 48 h
property: TGI

stdin: Give the reported value of TGI for this record: Cc1cc(Cl)ccc1NC(=O)C1C(=O)C(=O)N(c2ccc(Cl)cc2C)C1=O (configuration not stated)
stdout: > 100 µM

stdin: Give the value of TGI reported for the following: CCOc1ccc(NC(=O)/C(Cc2nc3ccccc3[nH]c2=O)=N\O)cc1
stdout: > 100 µM

stdin: Recall and state the measured TGI for CC(C)(c1ccccc1)c1ccc(Oc2ccc3c(c2)-c2nc-3nc3[nH]c(nc4nc(nc5[nH]c(n2)c2ccc(Oc6ccc(C(C)(C)c7ccccc7)cc6)cc52)-c2cc(Oc5ccc(C(C)(C)c6ccccc6)cc5)ccc2-4)c2ccc(Oc4ccc(C(C)(C)c5ccccc5)cc4)cc32)cc1 .
stdout: > 100 µM

stdin: Using known records, supply TGI for CCCCCCCCCCCCCCCCSS(C)(=O)=O
stdout: 42.7 µM

---

tested on: OVCAR-4 ovarian; assay: NCI tumour cell line growth inhibition, 48 h
property: TGI

As a guide, the following entries are already answered.
COc1ccc2nc(-c3ccc(Cl)cc3)cc(-c3nnc(SCC(=O)Nc4ccc(/C(C)=N\O)cc4)o3)c2c1 | 1.84 µM
S=C(Nc1ccc(Cl)cc1)c1ccc(CN2CCCCC2)s1 | 80.7 µM
Nc1c(C(=O)c2cccc(C(O)(CO)CO)c2)cnn1-c1ccc(F)cc1 | > 25 µM
COc1ccc2c(c1)C(=O)c1c-2n(CCCCl)c(=O)c2cc([N+](=O)[O-])ccc12 | 33.6 µM
Cc1cccc(C)c1NC(=O)C(=O)C(c1ccccc1Cl)S(=O)(=O)Cc1ccccc1Cl (centres undefined) | > 100 µM

stdin: Report TGI, nothing else, for this compound: O=C(O)c1[nH]c(=O)[nH]c(=O)c1CN1CCCCC1
stdout: > 100 µM

stdin: Given Nc1nc(N)c2c(CCc3ccc(C(=O)N[C@@H](CCC(=O)O)C(=O)O)cc3)ccnc2n1 , respond with its TGI.
stdout: > 100 µM

stdin: Given the compound N#Cc1c(N)n(C2OC(CO)C(O)C2O)c2ncnc(N)c12 (centres undefined) , write its reported TGI.
stdout: > 100 µM

stdin: Quick one: give measured TGI for NCc1ccc(O)c(O)c1O
stdout: 41 µM

stdin: For CN(C)C=O.CN(C)C=O.CN1C(C(=O)Nc2ccccn2)=C([O-])c2ccccc2S1(=O)=O.CN1C(C(=O)Nc2ccccn2)=C([O-])c2ccccc2S1(=O)=O.[Cu+2] , write its TGI.
stdout: 78.7 µM

---

Parameter TGI: see the listing below.
tested on: COLO 205 colon; assay: NCI tumour cell line growth inhibition, 48 h
Express your answer in µM, writing the number without its unit.

stdin: Name the recorded TGI of the item CN(C)CCNC(=O)c1ccccc1Nc1c(Cl)cccc1Cl in your answer.
stdout: 25.8

---

TGI: recorded values
system: SK-MEL-2 melanoma; assay: NCI tumour cell line growth inhibition, 48 h

# example entries with known answers
CC12CCC(=O)N1c1cc([N+](=O)[O-])ccc1N2 (stereo not given) | > 100 µM
Cc1cc(NCCCNc2ccnc3cc(Cl)ccc23)nc(Nc2ccc(C(=O)N3CCCCC3)cc2)n1 | 4.29 µM
C=C1CC(COc2ccc3c(C)c(Cl)c(=O)oc3c2)(c2ccccc2)OC1=O (stereo not given) | 3.36 µM
O=C(O)COc1cc(-c2ccccc2F)nc2cc3c(cc12)OCO3 | > 100 µM

We now examine a further compound.
stdin: Give the measured TGI for NC(CCCNc1ccc(O)cc1)C(=O)O (stereo not given)
stdout: > 66.8 µM

---

system: SF-268 CNS; experiment: NCI tumour cell line growth inhibition, 48 h
The entries below are paired with their reported GI50.

Example entries and their recorded answers appear below.
Nc1nc2ccccc2c2[nH]c3ccccc3c12 | 1970 nM
Oc1ccccc1/C=N/Nc1nc2ccccc2s1 | 3800 nM
COc1ccc(C2CC(c3ccc4ccccc4c3)=NN2/C=C2\SC(=S)N(NC(=O)Cc3ccccc3Nc3c(Cl)cccc3Cl)C2=O)cc1 (stereo not drawn) | 809 nM
CC[C@]12C=CCN3CC[C@@]4(c5ccc(OC)cc5N(C)[C@H]4[C@@](O)(C(=O)OC)[C@@H]1OC(=O)CCCC[P+](c1ccccc1)(c1ccccc1)c1ccccc1)[C@@H]32 | 644 nM
CS(=O)(=O)OCCCCOS(C)(=O)=O | 424000 nM
COc1ccc2nc(-c3ccc(Cl)cc3)cc(-c3nnc(SCC(=O)Nc4ccc(/C(C)=N\O)cc4)o3)c2c1 | 1440 nM
CCCCCCCC(=O)SCC/C=C/[C@@H]1CC(=O)NCc2cccc(n2)C2=N[C@@](C)(CS2)C(=O)N[C@@H](C(C)C)C(=O)O1 | 98.6 nM
COc1ccc(C(=O)OC2C(OC3C(O)COC(O[C@H]4C[C@H]5[C@@H]6CC=C7C[C@@H](O)CC[C@]7(C)[C@H]6CC[C@]5(C)[C@H]4[C@H](C)C(=O)CCC(C)C)C3OC(=O)C(C)C)OCC(O)C2O)cc1 (stereo partly drawn) | 19.5 nM
COc1ccc2c(c1)O/C(=C\c1ccc([N+](=O)[O-])o1)C2=O | 2000 nM
O=C(/C=C/c1ccccc1)Nc1ncc(Cc2ccccc2)s1 | 963 nM

stdin: Dear colleague, please send me the reported GI50 for COc1ccc(NC(=O)COc2ccccc2)c(C(N)=O)c1 when you can.
stdout: 4250 nM

stdin: Quote GI50 reported for COc1cc(/C=C/C(=O)c2ccc(F)cc2)ccc1OCCCCOc1cc2c(cc1OC)C(=O)N1CCCC1C=N2 (stereo not drawn) please.
stdout: 1030 nM

stdin: Please look at this compound and report its GI50: O=C(Nc1ccc(-n2ccc3c(NC(=O)c4ccccc4)ncnc32)cc1)Nc1ccc(Cl)c(C(F)(F)F)c1
stdout: 2020 nM

stdin: Determine its reported GI50: CS(=O)(=O)c1nccc(-c2c(-c3cccc(OCc4ccccc4)c3)nc3sccn23)n1
stdout: 19100 nM

stdin: Hello, please tell me recorded GI50 for this one: COc1cc2c(cc1OCCCOc1cc3c(cc1OC)C(=O)N1CC(F)(F)C[C@H]1C=N3)N=C[C@@H]1CC(F)(F)CN1C2=O
stdout: 216 nM

stdin: Entry O=C1C2=C(C(=O)c3c(O)ccc(O)c31)N(c1cccnc1)Cc1ccccc1O2 needs its GI50 filled in; supply it.
stdout: 650 nM

stdin: Tell us which GI50 value is on record for COc1ccc(/C=C(/C(=O)N2CCN(c3ccc(C)cc3)CC2)c2cc(OC)c(OC)c(OC)c2)cc1N
stdout: 430 nM

stdin: Look up GI50 of CC(C)C[C@H](NC(=O)[C@H](Cc1ccccc1)NC(=O)c1cnccn1)B(O)O and report it.
stdout: 2.88 nM

---

system: M19-MEL melanoma; test: NCI tumour cell line growth inhibition, 48 h
property: TGI

stdin: Return reported TGI for target or system M19-MEL melanoma, item O=C1C[C@@H]2[C@@H](C=CC23CC3)N1O .
stdout: > 100 µM

---

Here the recorded TGI is given for each entry.
system: BT-549 breast; assay: NCI tumour cell line growth inhibition, 48 h

Worked examples follow.
Cn1cc(S(=O)(=O)NC(=O)Nc2ccc(Cl)cc2)c(=O)c2ccc(Cl)cc21 | > 100 µM
O=[N+]([O-])c1ccc(CSc2c3ccccc3nc3ccccc23)cc1 | 33.4 µM

stdin: Specify TGI for COc1ccc2c3c(ccc2c1)NC(C(=O)O)CC3 (centres undefined) , system BT-549 breast.
stdout: > 100 µM

stdin: Find TGI for CCCCCCCCCCCCCCCCSS(C)(=O)=O on BT-549 breast and write it down.
stdout: > 100 µM

stdin: Provide TGI, tested on BT-549 breast, for N=C(N)c1ccc(CS(=O)(=O)F)cc1 .
stdout: > 100 µM

stdin: Please report TGI with BT-549 breast for item COc1cc(-c2nn(-c3ccc(NC(=O)Nc4ccc(Cl)c(C(F)(F)F)c4)cc3)cc2-c2ccncc2)ccc1Cl .
stdout: 4.57 µM

stdin: Lab note: record TGI of Cc1cc(NCCCNc2ccnc3cc(Cl)ccc23)nc(Nc2ccc(C(=O)N3CCCCC3)cc2)n1 tested on BT-549 breast.
stdout: 5.43 µM
